So I've got a bunch of binders here, and I need their % inhibition at 0.020 nM values.
biological target: T1, full length human DLL4 (human, UniProt Q9NR61 27-685); assay: FMAT competition, purified antibody vs Alexa-647 human Notch1/Fc, 293T cells with human DLL4
T1 construct: whole, on cells; also called native DLL4 expressed in HEK293 cells
T1 sequence (Q9NR61 27-685): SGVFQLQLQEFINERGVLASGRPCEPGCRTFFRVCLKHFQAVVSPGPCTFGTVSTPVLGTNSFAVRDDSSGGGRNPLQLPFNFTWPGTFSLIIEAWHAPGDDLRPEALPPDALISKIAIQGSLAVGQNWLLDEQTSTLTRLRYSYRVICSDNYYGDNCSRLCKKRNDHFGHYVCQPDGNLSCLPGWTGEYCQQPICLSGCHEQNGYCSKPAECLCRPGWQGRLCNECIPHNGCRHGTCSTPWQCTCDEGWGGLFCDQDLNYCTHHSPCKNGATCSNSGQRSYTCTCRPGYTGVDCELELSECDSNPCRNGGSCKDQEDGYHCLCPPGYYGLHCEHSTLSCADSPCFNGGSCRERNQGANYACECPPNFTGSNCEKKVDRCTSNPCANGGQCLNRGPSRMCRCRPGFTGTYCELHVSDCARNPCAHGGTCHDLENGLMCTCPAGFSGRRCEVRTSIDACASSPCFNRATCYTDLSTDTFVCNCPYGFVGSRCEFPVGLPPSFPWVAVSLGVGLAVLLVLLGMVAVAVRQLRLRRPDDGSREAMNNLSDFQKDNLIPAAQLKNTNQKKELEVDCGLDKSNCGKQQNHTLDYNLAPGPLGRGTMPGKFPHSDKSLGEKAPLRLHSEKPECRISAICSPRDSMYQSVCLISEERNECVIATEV
Expressed in %, but write only the number.

input: Given 2H10 (antibody, IgG4, V domains shown, Fully human; used for IgG4 rows and where no isotype is printed; also called 2H10 IgG4) VH: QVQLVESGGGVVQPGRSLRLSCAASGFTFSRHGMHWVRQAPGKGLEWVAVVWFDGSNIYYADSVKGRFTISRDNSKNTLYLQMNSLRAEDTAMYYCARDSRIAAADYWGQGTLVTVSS VL: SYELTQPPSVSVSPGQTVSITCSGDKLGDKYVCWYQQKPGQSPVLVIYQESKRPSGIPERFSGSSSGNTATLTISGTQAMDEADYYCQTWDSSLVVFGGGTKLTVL , respond with its % inhibition at 0.020 nM.
output: 6

input: Indicate its recorded % inhibition at 0.020 nM; the binder in question is 17F3 (antibody, IgG2, V domains shown, Fully human; also used where no isotype is printed) VH: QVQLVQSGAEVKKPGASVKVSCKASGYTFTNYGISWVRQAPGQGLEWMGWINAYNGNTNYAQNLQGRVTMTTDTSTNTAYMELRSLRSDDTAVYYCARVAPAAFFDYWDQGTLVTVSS VL: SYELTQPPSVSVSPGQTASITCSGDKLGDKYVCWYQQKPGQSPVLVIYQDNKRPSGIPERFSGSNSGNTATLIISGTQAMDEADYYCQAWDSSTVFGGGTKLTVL
output: 14
